Values were extracted from the supplement of paper PMC10567573.

B1: ZNF649 (parent)
chain: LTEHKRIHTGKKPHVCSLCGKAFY

variants of: B1; experiment: protein stability index of a GFP-peptide fusion (GPS, HEK-293T) (PSI 1-6); higher = more stable; conditions: c terminus: a fixed tail appended;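 also: lentivirally expressed fusions sorted by FACS into six bins by GFP to DsRed ratio, PSI derived from sequencing read proportions per bin multiplied by bin number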
protein stability index values, listed per item

Past entries and their recorded results:
Recorded result, `C16H` , protein stability index: 2.71

Recorded result, `S17I` , protein stability index: 2.48

Continuing:
Recorded result, `A22P` , protein stability index: 2.9
